experimental.details: chemical genetic growth profiling, strain panel (AID 1159580);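 further: tested at 20 µM; growth read once vehicle control cultures reached saturation at 30 °C; 1 = growth at the plate median or of vehicle wells; lower values mean less growth of the strain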
measurement.setup: S. cerevisiae deletion strains, growth OD, locus YKL160W, strain elf1, stronger effect = lower value
Hit rate of the full screen: of about 5,500 compounds, about 2,000 (36%) were called active. Roughly 18% stayed inconclusive and do not appear here. This is one part of the list.
quantity.name: normalized growth
API note: the answer field is a bare number with no unit suffix.

In [3]: df
Out[3]:
                                   molecule      quantity_name  reported
0  CCCC1O[C@@H]2CC3C4CCC5=CC(=O)C=CC5(C)C4[C@@H](O)CC3(C)[C@]2(C(=O)CO)O1 (some centres undefined)  normalized growth      1.01
1  O=C1C=CC2=C3c4cc(O)c(O)cc4CC3(O)COC2=C1O (centres undefined)  normalized growth      1.01
2                        CC(=O)NCCCCCC(=O)O  normalized growth      1.03

The reported normalized growth of the molecule Cc1occc(=O)c1O was 0.962

###

experimental.details: chemical genetic growth profiling, strain panel (AID 1159580)
measurement.setup: S. cerevisiae deletion strains, growth OD, locus YMR125W, strain sto1, stronger effect = lower value
About 2,000 (36%) of roughly 5,500 compounds were called active. Roughly 18% stayed inconclusive and do not appear here. Some of the results follow.
quantity.name: normalized growth
Returns: the value as a bare number; no unit string appended.

In [3]: df
Out[3]:
                                   compound      quantity_name  reported
0  CC(C)NCC(O)c1ccc2ccccc2c1 (configuration not stated)  normalized growth     0.982
1  CCN(CC)CCOc1ccc2c(c1)C(=O)c1cc(OCCN(CC)CC)ccc1-2  normalized growth     0.978
2             Nc1ccc(S(=O)(=O)Nc2ccccn2)cc1  normalized growth      1.01

Lab note: measured normalized growth of O=C(O)C1=CCNCC1 was 1.02

What the record says about CC(C)=CCC/C(C)=C/CC/C(C)=C/CC/C(C)=C/CC/C(C)=C/CC/C(C)=C/CC/C(C)=C/CC/C(C)=C/CC/C(C)=C/CO : normalized growth is 0.984

get_value(item= CC(=O)Nc1ccc(S(=O)(=O)c2ccc(NC(C)=O)cc2)cc1 , readout=normalized growth) returns 1.01

Lookup result for Cc1ccc2c(Cl)cc(Cl)c(O)c2n1 ; measured normalized growth: 1.02

###

experimental.details: chemical genetic growth profiling, strain panel (AID 1159580)
measurement.setup: S. cerevisiae deletion strains, growth OD, locus YER155C, strain BEM2 (second series), stronger effect = lower value
About 2,000 (36%) of roughly 5,500 compounds were called active. About 18% were inconclusive and are not listed. This is one part of the list.
Decision: normalized growth beneath 1 gives Met; normalized growth meeting or exceeding 1 gives Not met.

>>> df
                               smiles_input  label_class
0  CCOC(=O)c1oc2c(OC)c(O)cc(O)c2c(=O)c1-c1cc(OC)c(OC)c(OC)c1          Met

Determine whether this molecule shows normalized growth lower than 1 (ties excluded): Nc1ccc([As](=O)(O)O)cc1
Not met

Hello, is normalized growth of the following molecule strictly smaller than 1? CCCCC1=NC2(CCCC2)C(=O)N1Cc1ccc(-c2ccccc2-c2nn[nH]n2)cc1
Not met

###

experimental.details: chemical genetic growth profiling, strain panel (AID 1159580)
measurement.setup: S. cerevisiae deletion strains, growth OD, locus YJL115W, strain asf1, stronger effect = lower value
In all, about 5,500 compounds went through this assay and about 2,000 (36%) were called active. About 18% were inconclusive and are not listed. Some of the results follow.
Quick reference for normalized growth among some molecules
Hey, just send me the number, nothing else.

molecule	reported
C=C(C)[C@H]1CC=C(C(=O)O)CC1	0.983
CC(C)=CCC[C@](C)(O)C1CC=C(C)CC1 (stereo partly drawn)	0.988
CC(=O)O[C@H]1C[C@@H](OC(C)=O)C(C)(C)C2C[C@@H](OC(C)=O)[C@@]3(C)C4=CC(=O)O[C@@H](c5ccoc5)[C@]4(C)CCC3[C@]21C (stereo partly drawn)	0.999
COc1cc(C(=O)NCc2ccc(OCCN(C)C)cc2)cc(OC)c1OC	0.993
C=CC(C1=CC(=O)C(OC)=CC1=O)c1ccc(OC)cc1 (stereo not drawn)	0.973

response.value for CCN(CC)CCOc1ccc2c(c1)C(=O)c1cc(OCCN(CC)CC)ccc1-2 (field: normalized growth) = 0.98

// C1CCN2C[C@@H]3C[C@H](CN4CCCC[C@@H]34)[C@H]2C1 : normalized growth value = 0.993

# molecule C=CC(C1=CC(=O)C(OC)=CC1=O)c1ccc(O)cc1 (stereo not drawn) ; its normalized growth = 1.02

Entry CC(=O)NCCCCCC(=O)O — recorded normalized growth = 0.98

GET /value?item= C1CNCCN1 &field=normalized growth returns 1.01

Lab note: CC(C)=CCC/C(C)=C/CC/C(C)=C/CC/C(C)=C/CC/C(C)=C/CC/C(C)=C/CC/C(C)=C/CC/C(C)=C/CC/C(C)=C/CO gave normalized growth of 0.989

For record O=C1CCCC2C3CC(CN12)[C@@H]1CCCCN1C3 (stereo partly drawn) the listed normalized growth is 0.989

In plain terms, CN(C)CCOC(C)(c1ccccc1)c1ccccn1 (stereo not drawn) has a documented normalized growth of 1.01

###

experimental.details: chemical genetic growth profiling, strain panel (AID 1159580)
measurement.setup: S. cerevisiae deletion strains, growth OD, locus YNL322C, strain KRE1, stronger effect = lower value
The campaign covered roughly 5,500 compounds. About 2,000 (36%) were called active. Inconclusive results (about 18%) are left out. The list shows a part of the results.
quantity.name: normalized growth
Answer as a number with no unit attached.

Examples with their reported normalized growth follow.
>>> print(df.to_string())
                                   compound  reported
0                   Cc1ccsc1/C=C/C1=NCCCN1C         1
1  CC1(C)CC2C1(O)CCC1(C)C=CC(O)C21CO (stereo not drawn)     0.981

Consider the record given below.
Data point: CCSc1nnc(N)s1 ; normalized growth = 1.02

###

experimental.details: chemical genetic growth profiling, strain panel (AID 1159580);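 further: tested at 20 µM; growth read once vehicle control cultures reached saturation at 30 °C; 1 = growth at the plate median or of vehicle wells; lower values mean less growth of the strain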
measurement.setup: S. cerevisiae deletion strains, growth OD, locus YOR136W, strain idh2, stronger effect = lower value
Screen size: about 5,500 compounds; about 2,000 (36%) were called active. Roughly 18% stayed inconclusive and do not appear here. This is one part of the list.
Readings of normalized growth for the listed compounds

Look over these answered cases.
                            compound          reported
0            Cc1ccsc1/C=C/C1=NCCCN1C  0.972 (inactive)
1  O=C(O)c1ccccc1Nc1cccc(C(F)(F)F)c1  0.983 (inactive)

Noted for COc1cc2c(c(OC)c1OC)-c1ccc(O)c(=O)cc1[C@@H](NC(C)=O)CC2 : its normalized growth reads 0.988 (inactive)

Measured normalized growth, Cc1c(O)c(O)cc2c1CC=C1[C@@]2(C)CC[C@@]2(C)C3C[C@](C)(C(=O)O)CC[C@]3(C)CC[C@]12C (stereo not given in full) : 1 (inactive)

The compound O=C(O)CCCCC1CCSS1 (stereo not given) showed normalized growth equal to 0.969 (inactive)

###

experimental.details: chemical genetic growth profiling, strain panel (AID 1159580);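 further: tested at 20 µM; growth read once vehicle control cultures reached saturation at 30 °C; 1 = growth at the plate median or of vehicle wells; lower values mean less growth of the strain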
measurement.setup: S. cerevisiae deletion strains, growth OD, locus YOR106W, strain vam3, stronger effect = lower value
Out of some 5,500 compounds screened, about 2,000 (36%) were called active. About 18% were inconclusive and are not listed. The list shows a part of the results.
quantity.name: normalized growth
Please give only the number in your answer, with no unit.

>>> print(df.to_string())
                                   compound  reported
0            CC(=O)Nc1cc([As](=O)(O)O)ccc1O      0.99
1  OC[C@@H](O)[C@@H](O[C@@H]1O[C@H](CO)[C@@H](O)[C@H](O)[C@H]1O)[C@H](O)[C@@H](O)CO     0.998
2  CN1C(CC(=O)c2ccccc2)CCCC1CC(O)c1ccccc1 (stereo not given)         1
3  NC(=NCCC[C@H](N)C(=O)O)NC(CCC(=O)O)C(=O)O (stereo not given in full)      1.02

Per the records, this compound ( C=CC(C1=CC(=O)C(OC)=CC1=O)c1ccc(O)cc1 (stereo not given) ) has normalized growth equal to 0.989

###

Below: a set of entries, each annotated with reported normalized growth.
experimental.details: chemical genetic growth profiling, strain panel (AID 1159580);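 further: tested at 20 µM; growth read once vehicle control cultures reached saturation at 30 °C; 1 = growth at the plate median or of vehicle wells; lower values mean less growth of the strain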
measurement.setup: S. cerevisiae deletion strains, growth OD, locus YMR205C, strain PFK2, stronger effect = lower value
Among all 5,500 compounds or so, about 2,000 (36%) were called active. About 18% were inconclusive and are not listed. The list shows a part of the results.
Give the value as a plain number.

>>> df
                               compound  reported
0               C[n+]1cccc(C(=O)[O-])c1     0.974
1          CC(=O)/C(=C\c1ccccc1)CC(=O)O     0.967
2  CC(C)(C)NC[C@@H](O)COc1nsnc1N1CCOCC1      1.02

Sample O=[N+]([O-])c1cc(O)c(O)c([N+](=O)[O-])c1 ; normalized growth observed: 1.01

For CC(C)=CCC/C(C)=C/CC/C(C)=C/CC/C(C)=C/CC/C(C)=C/CC/C(C)=C/CC/C(C)=C/CC/C(C)=C/CC/C(C)=C/CO the compound record lists normalized growth as 0.982

Cited source for all entries: PubChem BioAssay AID1159580
